Give measured Dmax for each item. Keep answers brief.
- measurement.target: BRAF V600E (Homo sapiens, UniProt P15056, V600E)
- Construct: endogenous C-terminal HiBiT fusion tag on BRAF V600E allele; endogenous in cells; host or cells: A375 clone 1F10 (CRISPR-Cas9 knock-in of the HiBiT tag; parental A375 from ATCC)
- Sequence (P15056 whole entry V600E, the tested form may be a part): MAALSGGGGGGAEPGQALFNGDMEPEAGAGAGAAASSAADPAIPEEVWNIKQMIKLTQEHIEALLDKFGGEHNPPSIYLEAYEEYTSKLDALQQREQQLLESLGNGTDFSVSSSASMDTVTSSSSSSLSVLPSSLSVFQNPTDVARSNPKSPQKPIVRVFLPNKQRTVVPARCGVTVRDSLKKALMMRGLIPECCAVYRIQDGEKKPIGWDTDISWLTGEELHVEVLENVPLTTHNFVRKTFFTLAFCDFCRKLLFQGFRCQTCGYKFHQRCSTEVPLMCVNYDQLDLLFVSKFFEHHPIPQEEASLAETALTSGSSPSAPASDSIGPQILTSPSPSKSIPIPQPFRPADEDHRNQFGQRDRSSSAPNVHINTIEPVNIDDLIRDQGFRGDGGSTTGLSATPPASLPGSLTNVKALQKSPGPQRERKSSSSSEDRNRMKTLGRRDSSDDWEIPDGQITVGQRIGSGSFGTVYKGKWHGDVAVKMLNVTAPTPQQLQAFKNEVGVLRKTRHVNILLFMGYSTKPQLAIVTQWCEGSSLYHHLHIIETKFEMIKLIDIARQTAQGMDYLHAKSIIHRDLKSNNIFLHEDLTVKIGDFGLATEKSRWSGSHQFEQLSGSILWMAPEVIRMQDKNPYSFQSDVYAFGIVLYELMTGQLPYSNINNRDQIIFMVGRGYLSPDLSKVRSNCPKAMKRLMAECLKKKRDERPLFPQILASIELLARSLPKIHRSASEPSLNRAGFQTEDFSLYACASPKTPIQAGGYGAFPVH
- protocol.details: BRAF HiBiT degradation assay, C-terminal HiBiT-tagged BRAF V600E A375 cells (clone 1F10), Nano-Glo HiBiT Lytic assay
- Assay type: cell-based
- condition.label: A-375; A375 (BRAF V600E); percentage protein degraded at maximal compound effect relative to DMSO

Report Dmax for every entry below.
1. CCCS(=O)(=O)Nc1cccc(-c2nc(C(C)(C)C)sc2-c2ccnc(Nc3cnn(CC4CCN(CC5CCN(c6ccc7c(=O)n(C8CCC(=O)NC8=O)ccc7c6)CC5)CC4)c3)n2)c1F (racemic)
2. CCCS(=O)(=O)Nc1cccc(-c2nc(C3CCN(C(=O)C4CCN(C(=O)C5CCN(c6ccc([C@@H]7CCC(=O)NC7=O)cc6)CC5)CC4)CC3)sc2-c2ccncc2)c1F
3. CCCS(=O)(=O)Nc1cccc(-c2nc(C(C)(C)C)sc2-c2ccnc(NCC(C)(C)C3CCN(CC4CCN(c5ccc([C@H]6CCC(=O)NC6=O)cc5)CC4)CC3)n2)c1F
4. CCN(C)S(=O)(=O)Nc1cccc(-c2nc(C(C)(C)C)sc2-c2ccnc(Nc3ccc(N4CCN(C(=O)[C@H]5CC[C@H](CN6CCc7ccc(C8CCC(=O)NC8=O)cc7C6)CC5)CC4)cn3)n2)c1F (mixture of isomers)
5. CCCS(=O)(=O)Nc1cccc(-c2nc(C(C)(C)C)sc2-c2ccnc(Nc3cnn(CC4CCN(C(=O)C[C@H]5CCN(c6ccc(C7CCC(=O)NC7=O)cc6)C5)CC4)c3)n2)c1F (mixture of isomers)

// result
1: > 70%; 2: > 70%; 3: 30 to 70%; 4: 30 to 70%; 5: 30 to 70%

###

- measurement.target: BRAF G466V (Homo sapiens, UniProt P15056, G466V)
- Construct: Horizon Discovery (HCT-116 BRAF−/− cells); host or cells: HCT-116 BRAF−/− cells, clone 8, lentiviral transduction
- Sequence (P15056 whole entry G466V): as the sequence (P15056 whole entry V600E, the tested form may be a part) above, with G466V, E600V counted along it
- protocol.details: BRAF HiBiT degradation assay, C-terminal HiBiT-tagged BRAF G466V overexpressed in HCT-116 BRAF−/− cells (clone 8), Nano-Glo HiBiT Lytic assay
- Format: cell-based
- condition.label: BRAF G466V (Class 3), HCT-116 BRAF−/− cells; DC50 at 50% degradation
measure: DC50

O=C1CC[C@H](c2ccc(N3CCC(CN4CCN(c5ccc(-n6cc(-c7cc(Cl)cc(NS(=O)(=O)N8CCCC8)c7F)c(-c7ccncc7)n6)nc5)CC4)CC3)cc2)C(=O)N1: < 10 nM

Report DC50 for every entry below.
1. O=C1CC[C@H](c2ccc(N3CCC(CN4CCN(c5cc(F)c(-n6cc(-c7cc(Cl)cc(NS(=O)(=O)N8CCCC8)c7F)c(-c7ccncc7)n6)cc5F)CC4)CC3)cc2)C(=O)N1
2. O=C1CCC(c2ccc(N3CCC(CN4CCN(c5ccc(-n6cc(-c7cc(Cl)cc(NS(=O)(=O)C8CCCC8)c7F)c(-c7ccncc7)n6)cc5)CC4)CC3)nc2)C(=O)N1 (racemic)
3. CCCS(=O)(=O)Nc1cccc(-c2nc(C3CCC4(CC3)CCN(CC[C@H]3CCN(c5ccc(C6CCC(=O)NC6=O)cn5)C3)CC4)sc2-c2ccnc(N)n2)c1F (mixture of isomers)
4. C[C@@H]1CN(c2ccc(-n3cc(-c4cc(F)cc(NS(=O)(=O)N5CCCC5)c4F)c(-c4ccncc4)n3)c(F)c2)CCN1CC1CCN(c2ccc(C3CCC(=O)NC3=O)cn2)CC1 (mixture of isomers)
5. O=C1CCC(c2ccc(N3CCC(CN4CCN(c5ccc(-n6cc(-c7cc(Cl)cc(NS(=O)(=O)N8CCCC8)c7F)c(-c7ccncc7)n6)cn5)CC4)CC3)nc2)C(=O)N1 (racemic)

// result
1: < 10 nM; 2: < 10 nM; 3: > 500 nM; 4: < 10 nM; 5: < 10 nM

Numbers sourced from patent US20260317324A1.
